Where do the numbers come from? From the supplement of paper PMC7125110.

B1: glmS ribozyme (parent)
chain: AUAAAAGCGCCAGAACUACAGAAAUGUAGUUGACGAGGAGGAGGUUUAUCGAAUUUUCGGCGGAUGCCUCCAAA

Variants of: B1
Test: self-cleavage kobs at 40 uM GlcN6P; higher = faster cleavage; RNA array
Conditions: with glucosamine-6-phosphate
Fewer inactive variants are shown than the library holds.
Measured self-cleavage kobs at 40 uM GlcN6P, listed per entry for reference.

# VARIANT LABEL, self-cleavage kobs at 40 uM GlcN6P
data = [
    ("U31G C61A", "< 1e-05 s⁻¹"),
    ("A36G C58U C70U", "< 1e-05 s⁻¹"),
    ("C11U G35A", "< 1e-05 s⁻¹"),
    ("A39C G41A", "< 1e-05 s⁻¹"),
    ("A15G U55C", "0.000564 s⁻¹"),
    ("A48G G51U", "< 1e-05 s⁻¹"),
    ("A14U G62A", "< 1e-05 s⁻¹"),
    ("G43C A48U C50U C58A C67U", "< 1e-05 s⁻¹"),
    ("A15C G32C A64U C67A", "< 1e-05 s⁻¹"),
    ("C8G G40U", "< 1e-05 s⁻¹"),
    ("A14G A42G", "0.0027 s⁻¹"),
    ("A15G C34A", "< 1e-05 s⁻¹"),
    ("A6C C50G C70U", "0.000111 s⁻¹"),
    ("U30C A48U", "< 1e-05 s⁻¹"),
    ("U45A U49G", "5.25e-05 s⁻¹"),
    ("C8A A12U A39G", "< 1e-05 s⁻¹"),
    ("A33C G38U", "< 1e-05 s⁻¹"),
    ("G51C G59U", "< 1e-05 s⁻¹"),
    ("G7A G41A", "< 1e-05 s⁻¹"),
    ("G43U A64U", "< 1e-05 s⁻¹"),
    ("C16A U57A", "< 1e-05 s⁻¹"),
    ("U31C G32C G35A G59U G66U C71U", "< 1e-05 s⁻¹"),
]
